target: ~100 representative kinases (Homo sapiens, UniProt Q9UPE1); construct: Recombinant protein kinase domains with a concentration of 2 μM; test: DSF 100 kinase selectivity screen; format: binding; settings: Protein SRPK3; DSF; average of three replicates;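 further: compound tested at 20 µM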
Sequence (Q9UPE1 whole entry, the tested form may be a part): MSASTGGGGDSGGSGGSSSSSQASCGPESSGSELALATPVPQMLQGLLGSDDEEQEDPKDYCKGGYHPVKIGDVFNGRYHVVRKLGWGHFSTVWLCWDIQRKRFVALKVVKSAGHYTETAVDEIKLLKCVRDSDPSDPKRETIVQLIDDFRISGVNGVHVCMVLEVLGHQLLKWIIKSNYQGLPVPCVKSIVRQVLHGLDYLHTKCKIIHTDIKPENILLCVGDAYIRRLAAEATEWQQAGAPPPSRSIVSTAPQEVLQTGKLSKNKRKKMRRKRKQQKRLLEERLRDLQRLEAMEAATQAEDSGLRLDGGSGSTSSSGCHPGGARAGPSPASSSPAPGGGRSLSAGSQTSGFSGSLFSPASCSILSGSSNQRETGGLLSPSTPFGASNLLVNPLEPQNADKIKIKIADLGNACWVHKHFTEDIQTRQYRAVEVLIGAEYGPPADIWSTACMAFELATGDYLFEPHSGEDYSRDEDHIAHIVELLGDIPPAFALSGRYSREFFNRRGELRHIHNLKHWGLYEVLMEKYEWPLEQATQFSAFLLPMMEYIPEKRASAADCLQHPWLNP
Rule: measured dTm below 4 K gets MET; anything equal to or greater than 4 K gets NOT MET.

COMPOUND	SYSTEM	LABEL_VALUE
O=C(Nc1cccc(-c2c[nH]c3ncnc(N4CCOCC4)c23)c1)C1(C(=O)Nc2ccc(F)c(Cl)c2)CC1	~100 representative kinases (Homo sapiens, UniProt Q9UPE1)	NOT MET
CC(=O)N1CCN(c2nc(Cl)nc3[nH]cc(-c4cccc(NC(=O)Nc5cc(C(C)(C)C)nn5-c5ccc(C)cc5)c4)c23)CC1	~100 representative kinases (Homo sapiens, UniProt Q9UPE1)	MET
O=C(Nc1cc(F)cc(Br)c1)C1(C(=O)Nc2cccc(-c3c[nH]c4ncnc(N5CCOCC5)c34)c2)CC1	~100 representative kinases (Homo sapiens, UniProt Q9UPE1)	MET
COc1cc(S(C)(=O)=O)ccc1Nc1nc(N(C)C)c2c(Cl)c[nH]c2n1	~100 representative kinases (Homo sapiens, UniProt Q9UPE1)	MET
Cc1ccc(-n2nc(C(C)(C)C)cc2NC(=O)Nc2cccc(-c3c[nH]c4nc(Cl)nc(N5CCOCC5)c34)c2)cc1	~100 representative kinases (Homo sapiens, UniProt Q9UPE1)	MET

Please state whether dTm is below 4 K for CNC(=O)c1cc(Oc2ccc(NC(=O)Nc3cc(C(C)(C)C)nn3-c3ccc4ncccc4c3)c(F)c2)ccn1 [Rebastinib, reference compound]
NOT MET

Please state whether dTm is below 4 K for O=C(Nc1cccc(-c2c[nH]c3ncnc(N4CCOCC4)c23)c1)c1cccn(-c2ccc(F)cc2)c1=O
NOT MET

Please state whether dTm is below 4 K for CCSc1nc(NC)c2c(-c3cccc(NC(=O)Nc4cc(C(C)(C)C)nn4-c4ccc(C)cc4)c3)c[nH]c2n1
MET

----------
target: ~100 representative kinases (Homo sapiens, UniProt Q02750); construct: Recombinant protein kinase domains with a concentration of 2 μM; assay: DSF 100 kinase selectivity screen; assay type: binding; settings: protein MAP2K1; average of three replicates;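 further: compound tested at 20 µM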
Sequence (Q02750 whole entry, the tested form may be a part): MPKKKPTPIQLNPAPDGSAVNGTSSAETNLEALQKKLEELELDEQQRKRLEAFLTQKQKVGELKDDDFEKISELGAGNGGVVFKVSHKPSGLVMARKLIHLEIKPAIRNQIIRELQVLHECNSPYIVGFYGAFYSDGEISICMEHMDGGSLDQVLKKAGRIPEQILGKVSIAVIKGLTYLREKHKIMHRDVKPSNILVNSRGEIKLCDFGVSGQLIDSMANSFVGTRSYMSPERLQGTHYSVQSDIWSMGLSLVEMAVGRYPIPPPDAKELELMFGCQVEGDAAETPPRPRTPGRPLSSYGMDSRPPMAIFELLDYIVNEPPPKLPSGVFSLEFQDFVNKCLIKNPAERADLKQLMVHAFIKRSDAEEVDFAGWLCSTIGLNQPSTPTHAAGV
# class assignment by measured dTm: lower range: < 0.5 K; middle range: ≥ 0.5 K and < 2 K; upper range: ≥ 2 K

Before answering, review these 5 worked examples.
MOLECULE	LABEL_VALUE
CCSc1nc(NC)c2c(-c3cccc(NC(=O)Nc4cc(C(C)(C)C)nn4-c4ccc(C)cc4)c3)c[nH]c2n1	lower range
Cc1cc(NC(=O)C2(C(=O)Nc3ccc(F)cc3)CC2)cc(-c2c[nH]c3ncnc(N4CCOCC4)c23)c1	middle range
CC(C)(C)c1cccc(NC(=O)C2(C(=O)Nc3cccc(-c4c[nH]c5ncnc(N6CCOCC6)c45)c3)CC2)c1	upper range
CCNc1nc(Nc2cc(F)c(C(=O)N3CCOCC3)cc2OC)ncc1C(F)(F)F	lower range
Cc1ccc(C(=O)Nc2ccc(CN3CCN(C)CC3)c(C(F)(F)F)c2)cc1C#Cc1cnc2[nH]ncc2c1 [GZD-824, reference compound]	middle range

Assign a category based on measured dTm for O=C(Nc1cccc(-c2c[nH]c3ncnc(N4CCOCC4)c23)c1)C1(C(=O)Nc2cc(Br)c(F)cc2F)CC1 and give only the class name.
upper range

Assign a category based on measured dTm for O=C(Nc1cccc(-c2c[nH]c3ncnc(N4CCOCC4)c23)c1)C1(C(=O)Nc2ccc(F)c(Br)c2F)CC1 and give only the class name.
upper range

Assign a category based on measured dTm for CNC(=O)c1cc(Oc2ccc(NC(=O)Nc3cc(C(C)(C)C)nn3-c3ccc4ncccc4c3)c(F)c2)ccn1 [Rebastinib, reference compound] and give only the class name.
middle range

Assign a category based on measured dTm for COc1cc(C(=O)N2CCOCC2)c(F)cc1Nc1nc(N(C)C)c2c(Cl)c[nH]c2n1 and give only the class name.
lower range

Assign a category based on measured dTm for O=C(Nc1cc(F)cc(Br)c1)C1(C(=O)Nc2cccc(-c3c[nH]c4ncnc(N5CCOCC5)c34)c2)CC1 and give only the class name.
upper range
